Molecular target: Sigma non-opioid intracellular receptor 1 (Cavia porcellus)
Sequence (Q60492 whole entry): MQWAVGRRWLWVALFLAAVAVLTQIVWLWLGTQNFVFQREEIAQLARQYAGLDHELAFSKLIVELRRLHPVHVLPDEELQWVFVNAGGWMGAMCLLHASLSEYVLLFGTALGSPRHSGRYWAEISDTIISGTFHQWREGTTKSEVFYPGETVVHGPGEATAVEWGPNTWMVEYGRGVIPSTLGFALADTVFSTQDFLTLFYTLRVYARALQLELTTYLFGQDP
Test: Displacement of [3H](+)-pentazocine from sigma 1 receptor in guinea pig brain membrane homogenates after 90 mins by liquid scintillation counting
readout-type: Ki (nM)
Express your answer in nM, writing the number without its unit.

Req: Write down Ki measured for item O=C(c1ccccc1)C1CCN([C@@H]2CCCC[C@H]2O)CC1
Resp: 281

Req: Write down Ki measured for item O=C(c1ccc(I)s1)C1CCN([C@@H]2Cc3ccccc3C[C@H]2O)CC1 (relative stereo)
Resp: 194

Req: Write down Ki measured for item O=C(C1CCN([C@@H]2Cc3ccccc3C[C@H]2O)CC1)N1CCN(Cc2ccccc2)CC1 (relative stereo)
Resp: 118
